TARGET SYSTEM: Tumor necrosis factor receptor superfamily member 10B (Homo sapiens)
ASSAY REMARKS: caspase-8 TRAIL sensitization, hit retest, confirmation, cell-based, NB7+caspase-8, with/without TRAIL, luminescence panel (AID 651596)
CONDITION DETAILS: NB7 neuroblastoma + caspase-8, TRAIL sensitization, luminescence viability, with TRAIL, mean of runs, at 10 µM, stronger effect = higher value
Hi! Could you tag entries with activity below 90% as label 1, and those at or above as label 0? Much appreciated.

| MOLECULE | LABEL |
| --- | --- |
| CCOC(=O)[C@]12Cc3cc4ccccc4cc3[C@H]1N(Cc1ccccc1)C(=O)c1ccccc12 | label 1 |
| CC(=O)OC(C)(C)/C=C/C(=O)C(C)(O)C1[C@H](O)C[C@@]2(C)C3CC=C4C(CC[C@@H](O)C4(C)C)[C@]3(CO)C(=O)C[C@]12C (some centres undefined) | label 1 |
| CC12CCC(O)CC1CCC1C2CCC2(C)C(C3=CC(=O)OC3)C(O)CC12O (centres undefined) | label 1 |
| ClCCN(CCCl)c1ccc(-n2cnc3c(Cl)ncnc32)cc1 | label 0 |
| NC(N)=N/N=C/c1ccc(N(c2ccccc2)c2ccccc2)cc1 | label 1 |
| O=c1[nH]c2ccccc2n1C1CCN(C(c2cc3ccccc3o2)c2nnnn2-c2ccc3c(c2)OCCO3)CC1 (centres undefined) | label 1 |
| Clc1ccc(C[n+]2c(-c3ccccc3)cc(-c3ccccc3)cc2-c2ccccc2)cc1 | label 1 |
| CN(C)C(=O)Oc1ccc(-c2cn3cc(Cl)ccc3n2)cc1 | label 1 |
| CCCCCCCCCCCCCCCC[N+](C)(C)C | label 0 |
| CN(C)C(=O)O/N=C(\N)COc1ccc(C(C)(C)C)cc1 | label 0 |
| COc1ccc(-n2nnnc2C(c2cc3ccccc3o2)N2CCC(n3c(=O)[nH]c4ccccc43)CC2)cc1 (centres undefined) | label 1 |
| CC1=CC2OC3CC4OC(=O)C=CC=CC(=O)OCCC(C)C(O)C(=O)OCC2(CC1)C4(C)C31CO1 (centres undefined) | label 1 |
| CCCCCCCCCCCCn1ccc(=N)cc1 | label 0 |
| CC1OC(OC2C=C3CCC4C(CCC5(C)C(c6ccc(=O)oc6)CCC45O)C3(C)CC2)C(O)C(OC2OC(CO)C(O)C(O)C2O)C1O (centres undefined) | label 1 |
| CC12CCC(O)CC1CCC1C2CCC2(C)C(C3=CC(=O)OC3)CCC12O (centres undefined) | label 1 |
| C[C@H]1O[C@@H](OC2CC[C@]3(C=O)[C@H]4CC[C@]5(C)[C@@H](C6=CC(=O)OC6)CC[C@]5(O)[C@@H]4CC[C@]3(O)C2)CC2OC(C)(C)OC21 (some centres undefined) | label 1 |

====

TARGET SYSTEM: Tumor necrosis factor receptor superfamily member 10B (Homo sapiens) (UniProt O14763)
Sequence (O14763 whole entry, looked up): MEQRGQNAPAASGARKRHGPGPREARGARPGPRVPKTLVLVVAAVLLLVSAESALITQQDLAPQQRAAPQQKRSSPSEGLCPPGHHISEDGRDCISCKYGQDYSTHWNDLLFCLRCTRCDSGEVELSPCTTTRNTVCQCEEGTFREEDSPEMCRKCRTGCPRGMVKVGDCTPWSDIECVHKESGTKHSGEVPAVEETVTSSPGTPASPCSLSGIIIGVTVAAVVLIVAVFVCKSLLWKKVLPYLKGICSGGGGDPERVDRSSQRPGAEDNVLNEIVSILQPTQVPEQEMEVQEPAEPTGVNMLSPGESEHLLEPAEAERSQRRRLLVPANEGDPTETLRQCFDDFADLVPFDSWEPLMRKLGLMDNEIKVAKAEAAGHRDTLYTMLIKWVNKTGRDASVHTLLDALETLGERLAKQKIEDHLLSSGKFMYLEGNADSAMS
ASSAY REMARKS: caspase-8 TRAIL sensitization, hit retest, confirmation, cell-based, NB7+caspase-8, with/without TRAIL, luminescence panel (AID 651596)
CONDITION DETAILS: NB7 neuroblastoma + caspase-8, TRAIL sensitization, luminescence viability, with TRAIL, mean of runs, at 10 µM, stronger effect = higher value
Reported activity values for the following molecules.
OBSERVATION TYPE: activity (%)

| MOLECULE | MEASUREMENT UNIT | MEAS VALUE |
| --- | --- | --- |
| CCOC(=O)[C@]12Cc3ccc(C)cc3[C@H]1N(C1CCCCC1)C(=O)c1ccccc12 | % | 90.7 |
| CC12CCC3C(CCC4(O)CC(O)CCC34C=NO)C1(O)CCC2C1=COC(=O)C1 (stereo not drawn) | % | 91 |
| CCOC(=O)[C@]12Cc3cc(OC)ccc3[C@H]1N(C1CCCCC1)C(=O)c1ccccc12 | % | 91.9 |
